B1: LINE1-full (parent)
chain: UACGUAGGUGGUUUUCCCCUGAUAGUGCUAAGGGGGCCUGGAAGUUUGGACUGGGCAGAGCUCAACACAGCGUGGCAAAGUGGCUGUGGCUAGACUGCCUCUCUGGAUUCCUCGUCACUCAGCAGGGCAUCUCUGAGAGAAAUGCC

# Variants of: B1
# measurement.description: self-cleavage, relative activity (ratio to wild type); higher = more cleavage; in vitro, sequencing; the parent is a self-cleaving ribozyme
Decide by self-cleavage: equal to or exceeding 0.2 means True, less means False.

>>> discrete_label("A22G G86A")
"False"
>>> discrete_label("A50G C95U")
"False"
>>> discrete_label("U12G U73A")
"True"
>>> discrete_label("U26C G139A")
"True"
>>> discrete_label("U29A U87G")
"False"
>>> discrete_label("A42G A141G")
"True"
>>> discrete_label("C66U A77G")
"False"
>>> discrete_label("A6U U15C")
"True"
>>> discrete_label("U14C C37G")
"True"
>>> discrete_label("A124U U130A")
"True"
>>> discrete_label("A64U U115C")
"True"
>>> discrete_label("U52A U87C")
"True"
>>> discrete_label("A94G G126A")
"True"
>>> discrete_label("A22U C103U")
"True"
>>> discrete_label("U39C C63U")
"True"
>>> discrete_label("C37A A129G")
"True"
>>> discrete_label("A129G A136U")
"True"
>>> discrete_label("U26C A79U")
"True"
>>> discrete_label("A59U C95U")
"False"
>>> discrete_label("C18A U73G")
"True"
>>> discrete_label("U102C U132A")
"True"
>>> discrete_label("A59G U91C")
"False"

Data origin, for the record: the RNAGym collection of RNA variant scans (doi:10.7554/elife.90254)
